Test system: corn
Assay: Test E preemergence herbicide test
Type: in vivo, Zea mays
Design: key: 0 = no effect, 100 = complete control
Settings: 250 g ai/ha
Reported Plant response rating, Corn values are given for each entry in this list.
// keep it numeric: no unit symbol after the value

Solved entries:
> print(dat)
                                   compound               property.label  experimental.value
1  O=C1NCC(c2ccc(F)c(F)c2)C1C(=O)Nc1cccc(F)c1F (stereo not shown)  Plant response rating, Corn                   0
2  O=C1NCC(c2ccc(C(F)(F)F)cc2)C1C(=O)Nc1cccc(F)c1F (racemic) [Compound 202]  Plant response rating, Corn                  60

Complete the entry with Plant response rating, Corn for O=C1NCC(c2ccc(C(F)(F)F)cc2)C1C(=O)Nc1cccc(F)c1F (stereo not shown) [Compound 80]
30

Given the compound O=C1NCC(c2ccc(OC(F)F)cc2)C1C(=O)Nc1cccc(F)c1F (racemic) , write its reported Plant response rating, Corn.
0

// data source = patent US10294202B2
